Hi there, I'd appreciate the recorded IC50 for every entry that follows.
- Test system: Renin (Homo sapiens, UniProt P00797)
- Sequence (P00797 whole entry): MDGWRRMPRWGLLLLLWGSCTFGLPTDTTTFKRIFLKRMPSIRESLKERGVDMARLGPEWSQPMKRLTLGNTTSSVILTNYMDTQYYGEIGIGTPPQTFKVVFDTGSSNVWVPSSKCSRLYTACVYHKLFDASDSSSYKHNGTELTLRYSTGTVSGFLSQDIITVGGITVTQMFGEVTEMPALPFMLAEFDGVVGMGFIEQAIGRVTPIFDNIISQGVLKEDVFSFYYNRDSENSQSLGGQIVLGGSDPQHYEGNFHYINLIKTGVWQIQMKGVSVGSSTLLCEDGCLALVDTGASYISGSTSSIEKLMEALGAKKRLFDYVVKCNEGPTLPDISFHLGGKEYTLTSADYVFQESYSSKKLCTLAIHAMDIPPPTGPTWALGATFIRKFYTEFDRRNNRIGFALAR
- Assay name: […]

QUERY: Sample CC(C)C[C@H](NC(=O)[C@H](Cc1ccccc1)NC(=O)CCN1C(=O)COc2ccncc21)C(=O)N[C@@H](CC1CCCCC1)[C@@H](O)CC(=O)NCCCn1ccnc1 — what was its IC50?
RESULT: 20 nM

QUERY: Sample CC(C)C[C@H](NC(=O)[C@H](Cc1ccccc1)NC(=O)CC1CS(=O)(=O)c2ccccc21)C(=O)N[C@@H](CC1CCCCC1)[C@@H](O)CC(=O)NCCN1CCOCC1 (stereo partly specified) — what was its IC50?
RESULT: 170 nM

QUERY: Sample CC(C)C[C@H](NC(=O)[C@H](Cc1ccccc1)NC(=O)CCN1C(=O)CSc2cnccc21)C(=O)N[C@@H](CC1CCCCC1)[C@@H](O)CC(=O)NCCCn1ccnc1 — what was its IC50?
RESULT: 4 nM

QUERY: Sample CC(C)C[C@H](NC(=O)[C@H](Cc1ccccc1)NC(=O)CN1C(=O)CSc2ccncc21)C(=O)N[C@@H](CC1CCCCC1)[C@@H](O)CC(=O)NCCCn1ccnc1 — what was its IC50?
RESULT: 38 nM

QUERY: Sample CC(C)C[C@H](NC(=O)[C@H](Cc1ccccc1)NC(=O)CCN1C(=O)CS(=O)(=O)c2ccncc21)C(=O)N[C@@H](CC1CCCCC1)[C@@H](O)CC(=O)NCCCn1ccnc1 — what was its IC50?
RESULT: 8 nM

QUERY: Sample CC(C)C[C@H](NC(=O)[C@H](Cc1ccccc1)NC(=O)CC1CS(=O)(=O)c2ccccc21)C(=O)N[C@@H](CC1CCCCC1)[C@@H](O)CC(=O)NCCn1ccnc1 (stereo partly specified) — what was its IC50?
RESULT: 41 nM
